- Test system: Muscle tissue
- experimental.details: Biodistribution in overnight fasted Sprague-Dawley rat muscle pellet fraction at 0.7 to 1.4 MBq, iv at 30 mins by Folch-type extraction method
- Assay type: ADME, organism-based
- condition.context: in vivo, 0.5 h
# Lookup of reported Drug uptake keyed by entry
// units = %; emit number, no label

These recorded examples may help you get a feel for the data.
INSERT INTO assay_data (item_smiles, measured_property, observed_value) VALUES
  ('O=C(O)CCSCCCCCCCCCCCCCC[18F]', 'Drug uptake', 32.22),
  ('O=C(O)CCSCCCC/C=C\CCCCCCCC[18F]', 'Drug uptake', 59.12),
  ('O=C(O)CCSCCCCCCCCCCCC[18F]', 'Drug uptake', 43.18);

// next entry
*Q* What value of Drug uptake has been reported for the following compound? O=C(O)CCCCSCCCCCCCCCCCC[18F]
*A* 38.95

* * *

- Test system: Heart
- experimental.details: Drug uptake in overnight fasted Sprague-Dawley rat heart at 0.7 to 1.4 MBq, iv preincubated with POCA for 2 hrs before compound administration measured at 120 mins post treatment
- Format: ADME, organism-based
- condition.context: in vivo
measured.property: Drug uptake (%IDKg/g)
Entry rule: numbers only, all in %IDKg/g.

INSERT INTO measurements (item_smiles, unit_info, observed_value) VALUES
  ('O=C(O)CCCCSCCCCCCCCCCCC[18F]', '%IDKg/g', 0.2288),
  ('O=C(O)CCSCCCCCCCCCCCC[18F]', '%IDKg/g', 0.1042),
  ('O=C(O)CCSCCCC/C=C\CCCCCCCC[18F]', '%IDKg/g', 0.076);

Okay, next one:
*Q* Request - read-out Drug uptake | tested on Heart | compound O=C(O)CCSCCCCCCCCCCCCCC[18F]
*A* 0.1025

* * *

- System: Lung
- experimental.details: Drug uptake in overnight fasted Sprague-Dawley rat lung at 0.7 to 1.4 MBq, iv preincubated with POCA for 2 hrs before compound administration measured at 120 mins post treatment
- Type: ADME, organism-based
- condition.context: in vivo
measured.property: Drug uptake (%IDKg/g)
Give the quantity in %IDKg/g, number only.

INSERT INTO assay_data (item_smiles, test_system, observed_value) VALUES
  ('O=C(O)CCSCCCC/C=C\CCCCCCCC[18F]', 'Lung', 0.0179),
  ('O=C(O)CCSCCCCCCCCCCCC[18F]', 'Lung', 0.0472);

*Q* # Drug uptake lookup, item O=C(O)CCCCSCCCCCCCCCCCC[18F]
*A* 0.0536

*Q* Can you look up the measured Drug uptake of O=C(O)CCSCCCCCCCCCCCCCC[18F] for me?
*A* 0.0244

* * *

Collected Drug uptake values appear next to each entry.
- Test system: Liver
- experimental.details: Drug uptake in overnight fasted Sprague-Dawley rat liver at 0.7 to 1.4 MBq, iv preincubated with POCA for 2 hrs before compound administration measured at 30 mins post treatment
- Format: ADME, organism-based
- condition.context: in vivo, 0.5 h

Answered examples (3):
INSERT INTO measurements (item_smiles, observed_value) VALUES
  ('O=C(O)CCCCSCCCCCCCCCCCC[18F]', '0.8492 %IDKg/g'),
  ('O=C(O)CCSCCCC/C=C\CCCCCCCC[18F]', '0.8162 %IDKg/g'),
  ('O=C(O)CCSCCCCCCCCCCCC[18F]', '0.6197 %IDKg/g');

Now consider a different compound.
*Q* Checklist item: Drug uptake tested on Liver, entry O=C(O)CCSCCCCCCCCCCCCCC[18F] , value?
*A* 0.4064 %IDKg/g
